Assay: yeast display, Sf9 membrane polyspecificity reagent, FACS + sequencing; frameworks hold sequencing errors
RECORDED_ENDPOINT: polyreactivity (PSR sort gate)

1) QVQLVESGGGLVQAGGSLRLSCAASGRTFGRNVMGWYRQAPGKERELVAAISRSGGSTYYADSVKGRFTISRDNAKNTVYLQINSLKPEDTAVYYCAAYSVGDYYWGQGTQVTVSS ... high polyreactivity
2) QVQLVESGGGLVQAGGSLRLSCAASGSTFQSYAMGWYRQAPGKERELVAAITTTGTRTYYADSVKGRFTISRDNAKNTVYLQMNSLKPEDTAVYYCNAQRLQAHRTSRRYGYWGQGTQVTVSS ... high polyreactivity

----------
Assay: yeast display, Sf9 membrane polyspecificity reagent, FACS + sequencing; frameworks hold sequencing errors
RECORDED_ENDPOINT: polyreactivity (PSR sort gate)

1. QVQLVESGGGLVQAGGSLRLSCAASGRTFLLNAMGWYRQAPGKERELVAAMTRSGVITYYADSVKGRFTISRDNAKNTVYLQMNSLKPEDTAVYYCAARRDARSTEYGYWGQGTQVTVSS ... high polyreactivity
2. QVHLVESGGGLVQAGGSLRLSCAASGIIFYFYTMGWYRQAPGKERELVAAISSSGGRTFYADSVKGRFTISRDNAKNTDYLQMNSLKPEDTAVYYCAAAHTREYYWGQGTQVTVSS ... high polyreactivity

----------
Experiment: yeast display, Sf9 membrane polyspecificity reagent, FACS + sequencing; frameworks hold sequencing errors
RECORDED_ENDPOINT: polyreactivity (PSR sort gate)

1) QVQLVESGGGLVQAGGSLRLSCAASGIIFKSYTMGWYRQAPGKERELVAAINSSGDRTYYADSVKGRFTISRDNAKNTVYLQMNSLKPEDTAVYYCAAAPVKKSRFRYDYWGQGTQVTVSS ... high polyreactivity
2) QVQLVESGGGLVQAGGSLRLSCAASGRIFRRYAMGWYRQAHGKERELVAAITSGGRTYYADSVKGRFTISRDNAKNTVYLQMNSLKPEDTAVYYCAAKWTVGELDYWGQGTQVTVSS ... high polyreactivity
3) QVQLVESGGGLVQAGGSLRLSCAASGYIFGSYTMGWYRQAPGKERELVAGISRRGGGTYYADSVKGRFTMSRDNAKNNVYLQMNSLIPEDTAVYYCAAEVITIGLYRYGFWGQGTQVSVSS ... high polyreactivity

----------
Experiment: yeast display, Sf9 membrane polyspecificity reagent, FACS + sequencing; frameworks hold sequencing errors
RECORDED_ENDPOINT: polyreactivity (PSR sort gate)

1. QVQLVESGGGLVQAGGSLRLSCAASGFIFGFNAMGWYRQAPGKERELVAVISARGGRTYYADSVKGRFTISRDNAKNTVYLQMNSLKPEDTAVYYCAADDFFRYFFTHWVGDDYWGQGTQVTVSS ... low polyreactivity
2. PVQLVESGGGLVQAGGSLRLSCAASGSIFFGYAMGWYRQAPGKERELVAAFNGSVITSYADSVKGRFTISRDNAKNPVYVQMNSLKPEDTAYYCNTGSTWGAVIANYDHWGQGTQVTVSS ... low polyreactivity

----------
Assay: yeast display, Sf9 membrane polyspecificity reagent, FACS + sequencing; frameworks hold sequencing errors
RECORDED_ENDPOINT: polyreactivity (PSR sort gate)

1) QVQLVESGGGLVQAGGSLRLSCAASGRTLYGYTMGWYRQAPGQEREVVAAINAGGGSTYYADSVKGRFTSSRDNAKNTVYLQMNSLKPEDTAVYSCNARVRVRLGRNWSSYYYWGQGTQVTVSS ... high polyreactivity
2) QVQLVESGGGLVQAGGSLRLSCAASGSTFRGYAMGWYRQEPGKERELVAAITSGGSTNYADSVKGRFTISRDNAKNTVYLQMISLKPEDTAVYYCNADYTYLYDPNDYWGQGTQVTVSS ... low polyreactivity
3) QVQLVESGGGLVQAGGSLRLSCAASGFIYSRYAMGWYRQAPRKEMDFFAAISRNGGSTYYADSVKGRITISRDNAKNTVYLQMNSLKPDDTAVYYCIAPYFVTSTYANTLGFDYWGQGTQVTVSS ... high polyreactivity
4) QVQLVESGGGLVQAGGSLRIICAASGSIFTYNSMGWYREAPGKERELVAAISASGGRTYYADSVKGRFTISRDNAKNTVYLQMNSLKPEDTAVYYCNVLHRSDSGYYYRYDYWGQGTQVTVSS ... high polyreactivity
5) QVQLVESGGGLVQAGGSLRLSCAASGSTFDPYAMGWYRQAPGKERELVATINTGGDTHYADSVKGRFTISRDNAKNTVYLQMNSLKPEDTAVYYCNADYGKSRWIFDYWGQGTQVTVSS ... low polyreactivity

Lookup: What does the data say about its polyreactivity (PSR sort gate)? Entry: QVQVVESGGGLVQAGGRLRLSCAASGSTFKYYVMGWYRQAPGKERELVAAITRSGSTNYADSVKGRFRISRDNAKNTVYLQMNSLKPEDTAVYYCATDSLRLYGGKRDQYYWGQGTQVTVSS
Found: low polyreactivity

Lookup: What does the data say about its polyreactivity (PSR sort gate)? Entry: QAELVESGGGLVQAGGSLRLSCAASGLTFRAYAMGGYRQAPGKERELVAAISWNGGSTYYADSVKGRFTISRDNAKNTVYLQMNCLKPEDTAVYYCNAYDYQYFYGYEYDYWGQGTQVTVSS
Found: high polyreactivity

Lookup: What does the data say about its polyreactivity (PSR sort gate)? Entry: EEELVESGGGLVQAGGSSLRLSCAASGFIFVSNAMGWYRQAPGKERELVASIRWSDGSTFDADSVKGRFTNSRDNAKNTVYLQMNSLKPEDTAVYYCNAVYEHRRVGWVTIDYGYWGQGTQVTVSA
Found: low polyreactivity

----------
Assay: yeast display, Sf9 membrane polyspecificity reagent, FACS + sequencing; frameworks hold sequencing errors
RECORDED_ENDPOINT: polyreactivity (PSR sort gate)

1. QVQLVESGGGVVQAGGSLRLSCAASGRTSGSYAMGWYRQAPGNERELVAVITTSDGSTYYADSVKGRFTISRDNAKNTVYLQMNSLKPEDTAVYYCNVDYPNLWYDSYYYWGQGTQVTVSS ... low polyreactivity
2. QVQLVESGGGLVQAGGSLRLSCAASGSTFTLYAMGWYRQAPGKERELVAAISGIGDSTYYADSVKGRFTISRDNAKNTVYLQMNSLKPEDTAVYYCAADGEYRYDWEYESWGQGTKVTVSS ... low polyreactivity

----------
Test: yeast display, Sf9 membrane polyspecificity reagent, FACS + sequencing; frameworks hold sequencing errors
RECORDED_ENDPOINT: polyreactivity (PSR sort gate)

1) QVQLVESGGGLVQAGGSLRLSCAASGRTFGPYAMGWYRQPPGKEREFVAAISYSGGSTYYADSVKGRLTISRDNAKNTVDLQMNSLKPEVTAVYYCAVDIDANSGTRDYWGQGTQVTVSS ... low polyreactivity
2) QVQLVESGGGLVQAGGSLRLSCAASGFTFYSYAMGWYRQAPGKERELFAAITQSGGSTYYADSVKGRFTISRDNAKNTVYLQMNSLKPEDTAVYYCAADIYNDYDYGYYYWGQGTQVTVSS ... low polyreactivity

----------
Test: yeast display, Sf9 membrane polyspecificity reagent, FACS + sequencing; frameworks hold sequencing errors
RECORDED_ENDPOINT: polyreactivity (PSR sort gate)

Past entries and their recorded results:
1. QVQLVESGRGLVQAGGSLRLICDASGSTFFLYGMGWYRPAPGKERELVAAITWNGGSTYYADSVKGRFTISRDNAKNTVYLQMNSLKPEDTAVYYCAADYYGYFSTPYDYWGQGTQVTVSS ... low polyreactivity
2. QVQLVESGGGLVQAGGSLRLSCAASGSTFRVYDMGWYRQAPGKERELVASISYSVGSTYYADSVKGRFTISRDNAKNTVYLQMNSLKPEDTAVYYCAARPSYQPSSLARYDYWGQGTQVTVSS ... low polyreactivity
3. QVQLVESGGGLVQAGGSLRLSCAASGGILRDYAMGWSRQAPGKERELVAAISRGGRTNYADSVKGRFTISRDYSKNTVYLQLNSLKPEDTAVYYCAKRYARGENDYWGQGTQVNVSS ... high polyreactivity
4. QVQLVETGGGLVQAGGSLRLSCAASGFIFSTYAMGWSRQAPGKERELVAAISWSGGRTNYADSVKGRFTISRDHAKNTVYLQMNSLKPEDTAVYYCAVGGERGARIGSNHRGSRYDYWGQGTQVTVSS ... high polyreactivity

Lookup: What does the data say about its polyreactivity (PSR sort gate)? Entry: QVQLVVSGGGLVQAGGSLRLSCAASGRIFRAYAMGWYRQAPGQERELVADITSGSGSTYYADSVKGRFTISRDNAKNTVYLQMNSLKPEDTAVYYCAADVFIRDWEYYYWGQGTQVTVSS
Found: low polyreactivity

Lookup: What does the data say about its polyreactivity (PSR sort gate)? Entry: QVQLVESGGGLVQAGGSLRLSCAASGFIIDANTMGWYRQAPGKERELVAAINESGGSTYYADSVKGRFTISRDNAKNTVYLQMNSLKPEDTAVYYCAADPTWDYGWSGYPYYYYWGQGTQVTVSS
Found: high polyreactivity

Lookup: What does the data say about its polyreactivity (PSR sort gate)? Entry: QFQLVESGGGLVQAGGSLRLSCAASGFTFDNYVMGWYRQAPGKERELVAAISKSGTSTYYADSVKGRFTISRDNAKNTVYLQMNSLKPEDTAVYYCAAALPGYGDYYYWGQGTQVTVSS
Found: high polyreactivity
